Measured GI50 of individual entries
- Test system: SNB-19
- experiment_summary: NCI tumour cell line growth inhibition, 48 h
Active and inactive are the calls of the source. Cut-off read from the data, not from the text of the source: active = GI50 up to about 1.1 µM and inactive = higher.
property_name: GI50

>  <compound>
COc1ccc(-c2oc3cc(O)c(OC)c(O)c3c(=O)c2OC2OC(CO)C(O)C(O)C2O)cc1 (stereo unspecified)

>  <property_name>
GI50

>  <reported_value>
> 100 µM (inactive)

$$$$
>  <compound>
Cc1ccsc1/C=N/Nc1nncc2ccccc12

>  <property_name>
GI50

>  <reported_value>
> 100 µM (inactive)

$$$$
>  <compound>
CC1=C(C)CC2(CCCCC2=O)[S+]([O-])C1 (stereo unspecified)

>  <property_name>
GI50

>  <reported_value>
> 100 µM (inactive)

$$$$
>  <compound>
CN(C)CCn1c(=O)c2ccc3c4c(nn3CCN(C)C)c3cc(N)ccc3n(c1=O)c24

>  <property_name>
GI50

>  <reported_value>
< 0.0111 µM (active)

$$$$
>  <compound>
CCOC(=O)c1nc2ccccc2nc1Oc1ccc(OC)cc1

>  <property_name>
GI50

>  <reported_value>
> 100 µM (inactive)

$$$$
>  <compound>
NC(=O)/C=C/NC(=O)/C=N\O

>  <property_name>
GI50

>  <reported_value>
> 100 µM (inactive)

$$$$
>  <compound>
N#CC(C(=O)C(=O)Nc1ccc(Cl)cc1)c1ccccc1 (stereo unspecified)

>  <property_name>
GI50

>  <reported_value>
> 100 µM (inactive)

$$$$
>  <compound>
CC(=O)OCC1OC(On2ccccc2=S)C(OC(C)=O)C(OC(C)=O)C1OC(C)=O (stereo unspecified)

>  <property_name>
GI50

>  <reported_value>
> 100 µM (inactive)

$$$$
>  <compound>
COC(=O)[C@]1(C)CCC[C@]2(C)[C@@H](CCC(=O)C(C)C)[C@]3(C=O)O[C@@H]3C[C@H]21

>  <property_name>
GI50

>  <reported_value>
37.2 µM (inactive)

$$$$
>  <compound>
CC(C)(C)OC(=O)Cn1ncn(NC(=O)Cc2ccccc2)c1=O

>  <property_name>
GI50

>  <reported_value>
> 10 µM (inactive)

$$$$
>  <compound>
CSC1=NS(=O)(=O)c2cc(C(=O)NN(C)C(=O)c3cc4c(cc3Cl)SC(SC)=NS4(=O)=O)c(Cl)cc2S1

>  <property_name>
GI50

>  <reported_value>
> 10 µM (inactive)

$$$$

* * *

- Test system: DU-145
- experiment_summary: NCI tumour cell line growth inhibition, 48 h
Activity calls are given as the source filed them. Rule as the data show it: active = GI50 up to about 1.1 µM and inactive = higher.
Items are presented alongside their recorded GI50.
property_name: GI50

>  <molecule>
CS(=O)(=O)N1CC(CCl)c2ccc(NCCN)cc21 (stereo unspecified)

>  <measurement_target>
DU-145

>  <reported_value>
> 100 µM (inactive)

$$$$
>  <molecule>
CCCNC(=O)c1cc(OC)c(OC)cc1NC(=O)C12CC3CC(CC(C3)C1)C2

>  <measurement_target>
DU-145

>  <reported_value>
21.2 µM (inactive)

$$$$
>  <molecule>
COCn1c(C)c(C)c2c(=O)oc(C)nc21

>  <measurement_target>
DU-145

>  <reported_value>
> 100 µM (inactive)

$$$$
>  <molecule>
O=C(OCC1CCCN2CCCCC12)c1cccnc1 (stereo unspecified)

>  <measurement_target>
DU-145

>  <reported_value>
> 100 µM (inactive)

$$$$
>  <molecule>
Cc1ccc2c(c1)C(=O)C1(C2)Cc2cccc(C)c2C1=O (stereo unspecified)

>  <measurement_target>
DU-145

>  <reported_value>
> 100 µM (inactive)

$$$$
>  <molecule>
C/C(=C\COc1ccc2ccc(=O)oc2c1)CCC(=O)C(C)(C)O

>  <measurement_target>
DU-145

>  <reported_value>
32.1 µM (inactive)

$$$$
>  <molecule>
COC(=O)CC1CN(C(=O)OCc2ccccc2)C(C)(C)O1 (stereo unspecified)

>  <measurement_target>
DU-145

>  <reported_value>
> 100 µM (inactive)

$$$$
>  <molecule>
Oc1nc2cc(Cl)ccc2nc1/C(=N\Nc1ccccc1)C(O)c1ccc2c(c1)OCO2 (stereo unspecified)

>  <measurement_target>
DU-145

>  <reported_value>
> 100 µM (inactive)

$$$$
>  <molecule>
C/C(Cl)=N\OC(=O)Nc1ccc([N+](=O)[O-])cc1

>  <measurement_target>
DU-145

>  <reported_value>
17.6 µM (inactive)

$$$$
>  <molecule>
CCC1(C(=O)OC(C)(C)C)OC12C(C)CCCC2C (stereo unspecified)

>  <measurement_target>
DU-145

>  <reported_value>
> 100 µM (inactive)

$$$$
>  <molecule>
COC(=O)c1ccc2c(c1)CC1(C2)Cc2ccc3c(c2C1)CCC3 (stereo unspecified)

>  <measurement_target>
DU-145

>  <reported_value>
53.6 µM (inactive)

$$$$
